Here, each record is paired with measured mass density data.
settings: 293.2 K; 101.33 kPa; Liquid; Vibrating tube method
Give the value in kg/m3 but do not write kg/m3 after it.

Past entries and their recorded results:
INSERT INTO assay_data (molecule, value_kind, result_value) VALUES
  ('CCO', 'mass density', 789.91),
  ('CCCCCO', 'mass density', 814.16),
  ('CCCO', 'mass density', 801.33),
  ('CCCCCCO', 'mass density', 816.31);

Input line: Bench note: what mass density did C=C(C)[C@H]1CC=C(C)CC1 [(R)-1-methyl-4-(1-methylethenyl)cyclohexene] show?
Output line: 814.83

Input line: Bench note: what mass density did CC(C)O show?
Output line: 785.42

Input line: Bench note: what mass density did CCCCO show?
Output line: 810.28

====

Here, each record is paired with measured refractive index data.
test: refractive index (Na D-line) (dimensionless); conditions: 293.2 K; 101.33 kPa; Liquid; Standard Abbe refractometry
Answer using only a numeral; do not append any unit.

Past entries and their recorded results:
INSERT INTO assay_data (molecule, value_kind, result_value) VALUES
  ('CCO', 'refractive index', 1.3612),
  ('C=C(C)[C@H]1CC=C(C)CC1 [(R)-1-methyl-4-(1-methylethenyl)cyclohexene]', 'refractive index', 1.473),
  ('CC(C)O', 'refractive index', 1.3771);

Input line: Bench note: what refractive index did CCCO show?
Output line: 1.3851

Input line: Bench note: what refractive index did CCCCCCO show?
Output line: 1.4207

Input line: Bench note: what refractive index did CCCCCO show?
Output line: 1.4097

Input line: Bench note: what refractive index did CCCCO show?
Output line: 1.3993
